Target: β-catenin/BCL9 PPI (Homo sapiens (Human), UniProt P35222)
Sequence (P35222 whole entry): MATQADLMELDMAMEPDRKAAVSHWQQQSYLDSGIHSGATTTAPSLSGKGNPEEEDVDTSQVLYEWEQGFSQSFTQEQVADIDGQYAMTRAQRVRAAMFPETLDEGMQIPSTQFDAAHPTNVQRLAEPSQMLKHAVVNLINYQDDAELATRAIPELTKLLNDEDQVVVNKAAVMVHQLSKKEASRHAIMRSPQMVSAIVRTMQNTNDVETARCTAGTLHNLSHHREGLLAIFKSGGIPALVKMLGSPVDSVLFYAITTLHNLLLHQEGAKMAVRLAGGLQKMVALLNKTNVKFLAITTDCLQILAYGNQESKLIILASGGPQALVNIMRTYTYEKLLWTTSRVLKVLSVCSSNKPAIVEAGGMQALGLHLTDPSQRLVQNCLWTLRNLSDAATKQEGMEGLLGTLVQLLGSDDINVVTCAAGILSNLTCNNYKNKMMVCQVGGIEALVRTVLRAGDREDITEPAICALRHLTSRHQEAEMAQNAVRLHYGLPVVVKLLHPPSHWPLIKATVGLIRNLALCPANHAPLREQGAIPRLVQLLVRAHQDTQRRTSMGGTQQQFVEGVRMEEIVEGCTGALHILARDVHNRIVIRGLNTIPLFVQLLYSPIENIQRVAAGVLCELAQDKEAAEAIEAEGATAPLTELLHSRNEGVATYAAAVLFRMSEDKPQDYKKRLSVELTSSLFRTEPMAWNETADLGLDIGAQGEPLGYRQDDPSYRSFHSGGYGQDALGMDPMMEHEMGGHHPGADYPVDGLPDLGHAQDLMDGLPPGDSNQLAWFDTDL
Test: AlphaScreen competitive inhibition assay of β-catenin/BCL9 PPI
Settings: derived from IC50; mean ± standard deviation (n = 3); read-out: Ki ± SD
pKi: −log10 of the molar value. Structures can show the parent of a compound that is named as a salt.
endpoint: pKi

Name the recorded pKi of the item CC(C)(C)[C@H]1CC[C@@H](c2cc(C(=O)N3CCC(Oc4cc(N5CCNCC5)ccc4C#N)CC3)ccc2O[C@H]2CCNC2)CC1 in your answer.
≥ 5.70

Could you please provide reported pKi for COC(=O)c1ccc(N2CCNCC2)cc1OC1CCN(C(=O)c2ccc(O[C@H]3CCNC3)c(C3CCC(C(C)(C)C)CC3)c2)CC1 (stereo in doubt) [Compound 39, dihydrochloride] ? Thanks!
4.85

# return recorded pKi for entry O=C(c1ccc(O[C@H]2CCNC2)c(-c2ccc3[nH]ncc3c2)c1)N1CCC(Oc2cc(F)cc(N3CCNCC3)c2)CC1 [Compound 14, dihydrochloride]
≥ 5.00

Quote pKi reported for CC(C)(C)C1CCC(c2cc(C(=O)N3CCC(Oc4cc(N5CCNCC5)ccc4Cl)CC3)ccc2O[C@H]2CCNC2)CC1 (stereo in doubt) [Compound 36, dihydrochloride] please.
≥ 5.30

Given CC(C)(C)C1CCC(c2cc(C(=O)N3CCC(Oc4cc(C#N)cc(N5CCNCC5)c4)CC3)ccc2O[C@H]2CCNC2)CC1 (stereo in doubt) [Compound 32, dihydrochloride] , respond with its pKi.
≥ 5.00

// fetch pKi given entry CC(C)(C)C(=O)N1CCC(c2cc(C(=O)N3CCC(Oc4cc(F)cc(N5CCNCC5)c4)CC3)ccc2O[C@H]2CCNC2)CC1 [Compound 24, dihydrochloride]
~4.08

Supply recorded pKi for O=C(c1ccc(O[C@H]2CCNC2)c(-c2ccc3[nH]cnc3c2)c1)N1CCC(Oc2cc(F)cc(N3CCNCC3)c2)CC1 [Compound 16, dihydrochloride] here.
≥ 4.30

For the compound O=C(c1ccc(O[C@H]2CCNC2)c(C2CCC(C(F)(F)F)CC2)c1)N1CCC(Oc2cc(F)cc(N3CCNCC3)c2)CC1 (stereo in doubt) [Compound 18, dihydrochloride] , report pKi.
≥ 4.70

---

Test system: Wnt/β-catenin transactivation (TOPFlash) in SW480 cells
Assay: Wnt-responsive TOPFlash luciferase reporter assay
Format: cell-based
Settings: 24 h
endpoint: IC50

GET IC50 | system: Wnt/β-catenin transactivation (TOPFlash) in SW480 cells | item: CC(C)(C)[C@H]1CC[C@@H](c2cc(C(=O)N3CCC(Oc4cc(N5CCNCC5)ccc4C#N)CC3)ccc2O[C@H]2CCNC2)CC1
2.6 µM

---

Target: β-catenin/BCL9 PPI (Homo sapiens (Human), UniProt P35222)
Experiment: AlphaScreen competitive inhibition assay of β-catenin/BCL9 PPI
Conditions: derived from IC50; mean ± standard deviation (n = 3); read-out: Ki ± SD
Structures can show the parent of a compound that is named as a salt.
endpoint: Ki

Answer with reported Ki of O=C(c1ccc(O[C@H]2CCNC2)c(N2CCCCC2)c1)N1CCC(Oc2cc(F)cc(N3CCNCC3)c2)CC1 [Compound 25, dihydrochloride]
≤ 60 µM

For CC(C)(C)C1CCC(c2cc(C(=O)N3CCC(Oc4cc(N5CCNCC5)ccc4C(N)=O)CC3)ccc2O[C@H]2CCNC2)CC1 (stereo in doubt) [Compound 41, dihydrochloride] , write its Ki.
≤ 20 µM

Tell me Ki reported for CC(C)(C)C1CCC(c2cc(C(=O)N3CCC(Oc4cc(N5CCNCC5)ccc4C#N)CC3)ccc2O[C@H]2CCNC2)CC1 (stereo in doubt) [Compound 37, dihydrochloride]
≤ 2 µM

Give me measured Ki, please, for this compound: CC(C)(C)C1CCC(c2cc(C(=O)N3CCC(Oc4cc(Cl)cc(N5CCNCC5)c4)CC3)ccc2O[C@H]2CCNC2)CC1 (stereo in doubt) [Compound 30, dihydrochloride]
≤ 5 µM

Tell me its Ki given O=C(c1ccc(O[C@@H]2CCNC2)c(C2CCCCC2)c1)N1CCC(Oc2cc(F)cc(N3CCNCC3)c2)CC1 [Compound 7, dihydrochloride] as the entry.
≤ 60 µM

Give me measured Ki, please, for this compound: O=C(c1ccc(O[C@H]2CCNC2)c(C2CCN(C(=O)C3CC3)CC2)c1)N1CCC(Oc2cc(F)cc(N3CCNCC3)c2)CC1 [Compound 21, dihydrochloride]
≤ 50 µM

---

Molecular target: β-catenin/BCL9 PPI (Homo sapiens (Human), UniProt P35222)
Assay: AlphaScreen competitive inhibition assay of β-catenin/BCL9 PPI
Details: mean ± standard deviation (n = 3)
pIC50: −log10 of the molar value. Counter-ions that a name gives are not always drawn.
Provide the recorded pIC50 for the entries that follow.

Assign pIC50 to the following record: COC(=O)c1ccc(N2CCNCC2)cc1OC1CCN(C(=O)c2ccc(O[C@H]3CCNC3)c(C3CCC(C(C)(C)C)CC3)c2)CC1 (stereo in doubt) [Compound 39, dihydrochloride]
4.77

Using the record for CC1(O)CCN(c2cc(C(=O)N3CCC(Oc4cc(F)cc(N5CCNCC5)c4)CC3)ccc2O[C@H]2CCNC2)CC1 [Compound 28] , state its measured pIC50.
≥ 4.70

Read the entry O=C(c1ccc(OC2CCNCC2)c(C2CCCCC2)c1)N1CCC(Oc2cc(F)cc(N3CCNCC3)c2)CC1 [Compound 6, ditrifluoroacetic acid] and write its reported pIC50.
< 4.00

Answer with the recorded pIC50 for the molecule listed here: CC(O)C(=O)N1CCC(c2cc(C(=O)N3CCC(Oc4cc(F)cc(N5CCNCC5)c4)CC3)ccc2O[C@H]2CCNC2)CC1 (stereo partly shown) [Compound 23, dihydrochloride]
≥ 4.30

Please list pIC50 recorded for the molecule CC(C)(C)C1CCC(c2cc(C(=O)N3CCC(Oc4ccc(F)c(N5CCNCC5)c4)CC3)ccc2O[C@H]2CCNC2)CC1 (stereo in doubt) [Compound 33, dihydrochloride]
≥ 5.00

Give pIC50 for the following molecule: O=C(c1ccc(O[C@H]2CCNC2)c(C2CCCCC2)c1)N1CCC(Oc2cc(F)cc(N3CCC4(CCNC4)C3)c2)CC1 (stereo partly shown) [Compound 5, ditrifluoroacetic acid]
≥ 4.40

Look up and report measured pIC50 for this entry: CC(C)(C)C1CCC(c2cc(C(=O)N3CCC(Oc4cc(Cl)cc(N5CCNCC5)c4)CC3)ccc2O[C@H]2CCNC2)CC1 (stereo in doubt) [Compound 30, dihydrochloride]
≥ 5.30

Let me know recorded pIC50 for CC(C)(C)C1CCC(c2cc(C(=O)N3CCC(Oc4cc(C#N)cc(N5CCNCC5)c4)CC3)ccc2O[C@H]2CCNC2)CC1 (stereo in doubt) [Compound 32, dihydrochloride] , thanks.
≥ 5.00

Fill in reported pIC50 for this entry: CC(C)(C)C1CCC(c2cc(C(=O)N3CCC(Oc4cc(N5CCNCC5)ccc4F)CC3)ccc2O[C@H]2CCNC2)CC1 (stereo in doubt) [Compound 34, dihydrochloride]
≥ 5.00

Consider the molecule CC(C)(C)C1CCC(c2cc(C(=O)N3CCC(Oc4cccc(N5CCNCC5)c4)CC3)ccc2O[C@H]2CCNC2)CC1 (stereo in doubt) [Compound 38, dihydrochloride] and give its recorded pIC50.
≥ 4.70

Give reported pIC50 value for O=C(c1ccc(O[C@H]2CCNC2)c(N2CCC(C(F)(F)F)CC2)c1)N1CCC(Oc2cc(F)cc(N3CCNCC3)c2)CC1 [Compound 26, dihydrochloride]
≥ 4.00

# return recorded pIC50 for input CC(C)(C)C1CCC(c2cc(C(=O)N3CCC(Oc4cc(N5CCNCC5)ccc4C(N)=O)CC3)ccc2O[C@H]2CCNC2)CC1 (stereo in doubt) [Compound 41, dihydrochloride]
≥ 4.70

For O=C(c1ccc(O[C@@H]2CCNC2)c(C2CCCCC2)c1)N1CCC(Oc2cc(F)cc(N3CCNCC3)c2)CC1 [Compound 7, dihydrochloride] , write its pIC50.
≥ 4.15

Complete the entry with pIC50 for CC(C)(C)C1CCC(c2cc(C(=O)N3CCC(Oc4cc(N5CCNCC5)cc(C(F)(F)F)c4)CC3)ccc2O[C@H]2CCNC2)CC1 (stereo in doubt) [Compound 31, dihydrochloride]
≥ 5.30

Please supply the value of reported pIC50 for the item CC(C)(C)C1CCN(c2cc(C(=O)N3CCC(Oc4cc(F)cc(N5CCNCC5)c4)CC3)ccc2O[C@H]2CCNC2)CC1 [Compound 27, dihydrochloride]
≥ 4.52

Determine from records and report pIC50 for CC(C)(C)C1CCC(c2cc(C(=O)N3CCC(Oc4cc(N5CCNCC5)ccc4C#N)CC3)ccc2O[C@H]2CCNC2)CC1 (stereo in doubt) [Compound 37, dihydrochloride]
≥ 5.70

Please supply the value of reported pIC50 for the item CC(C)(C)C1CCC(c2cc(C(=O)N3CCC(Oc4cc(N5CCNCC5)ccc4C(=O)O)CC3)ccc2O[C@H]2CCNC2)CC1 (stereo in doubt) [Compound 40, dihydrochloride]
~4.00

Determine its reported pIC50: O=C(c1ccc(O[C@H]2CCNC2)c(-c2ccccc2)c1)N1CCC(Oc2cc(F)cc(N3CCNCC3)c2)CC1 [Compound 8, dihydrochloride]
≥ 4.30

Report pIC50, nothing else, for this molecule: O=C(c1ccc(O[C@H]2CCNC2)c(C2CCN(C(=O)C3CC3)CC2)c1)N1CCC(Oc2cc(F)cc(N3CCNCC3)c2)CC1 [Compound 21, dihydrochloride]
≥ 4.30

Provide pIC50 value for the following molecule: O=C(c1ccc(O[C@H]2CCNC2)c(-c2cn[nH]c2)c1)N1CCC(Oc2cc(F)cc(N3CCNCC3)c2)CC1 [Compound 17, dihydrochloride]
≥ 5.70

Please give measured pIC50 of the following entry: O=C(c1ccc(O[C@H]2CCNC2)c(-c2ccc3[nH]ncc3c2)c1)N1CCC(Oc2cc(F)cc(N3CCNCC3)c2)CC1 [Compound 14, dihydrochloride]
≥ 5.00

Output pIC50 of O=C(c1ccc(O[C@H]2CCNC2)c(C2CCOCC2)c1)N1CCC(Oc2cc(F)cc(N3CCNCC3)c2)CC1 [Compound 20, dihydrochloride]
~4.00
